Reference for the values: patent US12104181B2

Provide the reported Percent Infected R1 of each item.
tested on: coxsackievirus B3 (CVB3-GFP); format: cell-based; settings: HeLa cells, GFP-positive cells within RFP-positive gate, replicate R1
One number for each entry, in %.

The cases that follow already have their Percent Infected R1 on record.
- molecule: "TRIM52: human RING type E3 ligase expressed from lentiviral vector (protein, UniProt Q96A61 1-297, looked up, lentiviral expression, human RING type E3 ligase expressed from lentiviral vector) E3 ubiquitin-protein ligase …: MAGYATTPSPMQTLQEEAVCAICLDYFKDPVSISCGHNFCRGCVTQLWSKEDEEDQNEEEDEWEEEEDEEAVGAMDGWDGSIREVLYRGNADEELFQDQDDDELWLGDSGITNWDNVDYMWDEEEEEEEEDQDYYLGGLRPDLRIDVYREEEILEAYDEDEDEELYPDIHPPPSLPLPGQFTCPQCRKSFTRRSFRPNLQLANMVQIIRQMCPTPYRGNRSNDQGMCFKHQEALKLFCEVDKEAICVVCRESRSHKQHSVLPLEEVVQEYQEIKLETTLVGILQIEQESIHSKAYNQ"
  scale.unit: "%"
  Percent Infected R1: 67.6
- molecule: "RNF166: human RING type E3 ligase expressed from lentiviral vector (protein, UniProt Q96A37 1-237, looked up, lentiviral expression, human RING type E3 ligase expressed from lentiviral vector) E3 ubiquitin-protein ligase …: MAMFRSLVASAQQRQPPAGPAGGDSGLEAQYTCPICLEVYHRPVAIGSCGHTFCGECLQPCLQVPSPLCPLCRLPFDPKKVDKATHVEKQLSSYKAPCRGCNKKVTLAKMRVHISSCLKVQEQMANCPKFVPVVPTSQPIPSNIPNRSTFACPYCGARNLDQQELVKHCVESHRSDPNRVVCPICSAMPWGDPSYKSANFLQHLLHRHKFSYDTFVDYSIDEEAAFQAALALSLSEN"
  scale.unit: "%"
  Percent Infected R1: 94.5
- molecule: "RNF121: human RING type E3 ligase expressed from lentiviral vector (protein, UniProt Q9H920 2-327, looked up) E3 ubiquitin ligase RNF121: AAVVEVEVGGGAAGERELDEVDMSDLSPEEQWRVEHARMHAKHRGHEAMHAEMVLILIATLVVAQLLLVQWKQRHPRSYNMVTLFQMWVVPLYFTVKLHWWRFLVIWILFSAVTAFVTFRATRKPLVQTTPRLVYKWFLLIYKISYATGIVGYMAVMFTLFGLNLLFKIKPEDAMDFGISLLFYGLYYGVLERDFAEMCADYMASTIGFYSESGMPTKHLSDSVCAVCGQQIFVDVSEEGIIENTYRLSCNHVFHEFCIRGWCIVGKKQTCPYCKEKVDLKRMFSNPWERPHVMYGQLLDWLRYLVAWQPVIIGVVQGINYILGLE"
  scale.unit: "%"
  Percent Infected R1: 84.1
- molecule: "TRIM40: human RING type E3 ligase expressed from lentiviral vector (protein, UniProt Q6P9F5 1-258, looked up, lentiviral expression, human RING type E3 ligase expressed from lentiviral vector) E3 ubiquitin ligase TRIM40: MIPLQKDNQEEGVCPICQESLKEAVSTNCGHLFCRVCLTQHVEKASASGVFCCPLCRKPCSEEVLGTGYICPNHQKRVCRFCEESRLLLCVECLVSPEHMSHHELTIENALSHYKERLNRRSRKLRKDIAELQRLKAQQEKKLQALQFQVDHGNHRLEAGPESQHQTREQLGALPQQWLGQLEHMPAEAARILDISRAVTQLRSLVIDLERTAKELDTNTLKNAGDLLNRSAPQKLEVIYPQLEKGVSELLLQPPQKL"
  scale.unit: "%"
  Percent Infected R1: 62.8
- molecule: "RNF148: human RING type E3 ligase expressed from lentiviral vector (protein, UniProt Q8N7C7 35-305, looked up) RING finger protein 148: KAIWTAHLNITFQVGNEITSELGESGVFGNHSPLERVSGVVALPEGWNQNACHPLTNFSRPKQADSWLALIERGGCTFTHKINVAAEKGANGVIIYNYQGTGSKVFPMSHQGTENIVAVMISNLKGMEILHSIQKGVYVTVIIEVGRMHMQWVSHYIMYLFTFLAATIAYFYLDCVWRLTPRVPNSFTRRRSQIKTDVKKAIDQLQLRVLKEGDEELDLNEDNCVVCFDTYKPQDVVRILTCKHFFHKACIDPWLLAHRTCPMCKCDILKT"
  scale.unit: "%"
  Percent Infected R1: 82.3
- molecule: "RNF152: human RING type E3 ligase expressed from lentiviral vector (protein, UniProt Q8N8N0 1-203, looked up, lentiviral expression, human RING type E3 ligase expressed from lentiviral vector) E3 ubiquitin-protein ligase …: METLSQDSLLECQICFNYYSPRRRPKLLDCKHTCCSVCLQQMRTSQKDVRCPWCRGVTKLPPGFSVSQLPDDPEVLAVIAIPHTSEHTPVFIKLPSNGCYMLPLPISKERALLPGDMGCRLLPGSQQKSVTVVTIPAEQQPLQGGAPQEAVEEEQDRRGVVKSSTWSGVCTVILVACVLVFLLGIVLHNMSCISKRFTVISCG"
  scale.unit: "%"
  Percent Infected R1: 97.4

Would you mind listing Percent Infected R1 for each of the following molecules?
1. RNF151: human RING type E3 ligase expressed from lentiviral vector (protein, UniProt Q2KHN1 1-245, looked up) RING finger protein 151: MGGGYDLNLFASPPDSNFVCSVCHGVLKRPARLPCSHIFCKKCILRWLARQKTCPCCRKEVKRKKVVHMNKLRKTIGRLEVKCKNADAGCIVTCPLAHRKGHQDSCPFELTACPNEGCTSQVPRGTLAEHRQHCQQGSQQRCPLGCGATLDPAERARHNCYRELHNAWSVRQERRRPLLLSLLRRVRWLDQATSVVRRELAELSNFLEEDTALLEGAPQEEAEAAPEGNVGAEVVGEPRANIPCK
2. RNF170: human RING type E3 ligase expressed from lentiviral vector (protein, UniProt Q96K19 1-258, looked up, lentiviral expression, human RING type E3 ligase expressed from lentiviral vector) E3 ubiquitin-protein ligase …: MAKYQGEVQSLKLDDDSVIEGVSDQVLVAVVVSFALIATLVYALFRNVHQNIHPENQELVRVLREQLQTEQDAPAATRQQFYTDMYCPICLHQASFPVETNCGHLFCGACIIAYWRYGSWLGAISCPICRQTVTLLLTVFGEDDQSQDVLRLHQDINDYNRRFSGQPRSIMERIMDLPTLLRHAFREMFSVGGLFWMFRIRIILCLMGAFFYLISPLDFVPEALFGILGFLDDFFVIFLLLIYISIMYREVITQRLTR

Result:
1. 92.8
2. 97.3
